The measured values listed here are drawn from paper PMC9132363.

Assay explanation: MTT viability assay
Assay type: cell-based, human
Assay setup: human, HEK293T cells; HEK293T, 60 μM, 16 h; read-out: Cell viability (MTT)
Where a name gives a salt, the structure may show the parent alone.
Observation type: viability at 16 h, 60 µM (%)
// note: answer is a bare numeric in %

Q. Provide only the value of recorded viability at 16 h, 60 µM for COC(=O)/C=C/C(=O)OC [DMF, dimethyl fumarate, reference compound]
A. 92.2

Q. Provide only the value of recorded viability at 16 h, 60 µM for COc1cc(CCC(=O)N2CCN(S(=O)(=O)c3cccc4cnccc34)CC2)ccc1O
A. 87.5

Q. Provide only the value of recorded viability at 16 h, 60 µM for O=C(CCc1ccc(O)c(O)c1)N1CCN(S(=O)(=O)c2cccc3cnccc23)CC1
A. 105

Q. Provide only the value of recorded viability at 16 h, 60 µM for O=C(/C=C/c1ccc(O)c(O)c1)N1CCCN(S(=O)(=O)c2cccc3cnccc23)CC1
A. 84.7
